Each item that follows carries a reported growth.
# Test system: TK-10 renal
# assay-notes: NCI-60 one-dose screen, 48 h (100 = growth as untreated, 0 = no growth, -100 = all killed)
# experimental-context: 10 µM unless noted
# Procedure: Growth inhibition of the TK-10 human tumor cell line is measured as a screen for anti-cancer activity. Cells are grown in 96 well plates and exposed to the test compound for 48 hours. Compounds are tested at a single concentration, which is 10^-5 M for most compounds. The reported endpoint is percent growth (GI% or GIPRCNT), where numbers from 0 - 100% represent growth inhibition, and numbers from -100% - 0 represent cell death. For example, a value of 40 represents 60% growth inhibition. […]
About 83,000 compounds went through this panel and 20% of them were active in at least one assay; those are over-represented in the sample as a whole.
Entry rule: numbers only, all in %.

COc1cc(C(=O)Nc2cc(OC)c3ccn(C)c3c2)cc2c1C[C@]1(C)CC[C@@H](O)C(C)(C)[C@H]1O2 = 36.9
Sc1cccc2cccnc12 = 48.3

Query: Data request, read-out growth, for `CC(C)(C)c1ccc(O)c(Cc2cc(C(C)(C)C)ccc2O)c1`
Response: 94.2

Query: Value lookup for growth; key = `C=C1C(=O)O[C@H]2[C@H]1CC/C(COC(=O)CCCCC(=O)OC/C1=C/CC[C@@]3(C)O[C@H]3[C@H]3OC(=O)C(=C)[C@@H]3CC1)=C\CC[C@@]1(C)O[C@@H]21`
Response: 25.2
